Hi there, I'd appreciate the recorded log10 of TGI for every entry that follows.
system: HL-60(TB) leukemia; assay: NCI tumour cell line growth inhibition, 48 h
Hey, these are logged values: log10 of TGI, µM being the unit before logging.

Identify the reported log10 of TGI for the following entry. "Oc1ccc(SCc2ccc(NCc3ccccc3)cc2)cc1" 1.84

Identify the reported log10 of TGI for the following entry. "CC(C)(CCC(C)(C)c1ccccc1)c1ccccc1" 1.51

Identify the reported log10 of TGI for the following entry. "Nc1c(O)c(S(=O)(=O)O)c(O)c2c1C(=O)c1ccccc1C2=O" 0.56

Identify the reported log10 of TGI for the following entry. COc1cc(C2C3=C(N=C4SC(C(C)=O)=C(C)N42)c2ccccc2CC3)cc(OC)c1OC (configuration not stated) 1.91

Identify the reported log10 of TGI for the following entry. "N#Cc1ccc2oc3ccc(C#N)cc3c(=O)c2c1" 1.59

Identify the reported log10 of TGI for the following entry. NC(CNc1ccc(O)cc1)C(=O)O (configuration not stated) 1.98

---

system: MDA-MB-435; assay: NCI tumour cell line growth inhibition, 48 h
Hi there, I'd appreciate the recorded TGI for every entry that follows.

Identify the reported TGI for the following entry. "c1csc(-c2nnc(C34CC5CC(CC(C5)C3)C4)o2)c1" > 100 µM

Identify the reported TGI for the following entry. "COc1ccc2sc3c(NCCCNCCO)nc4ccccc4c3c(=O)c2c1" 3.01 µM

Identify the reported TGI for the following entry. "N#Cc1ccc2oc3ccc(C#N)cc3c(=O)c2c1" > 100 µM

Identify the reported TGI for the following entry. C=CCNc1cccc2c1C(=O)c1ccccc1C2(O)CC=C (configuration not stated) 59 µM

Identify the reported TGI for the following entry. O=C1C(CN2CCCC2)CCCC1CN1CCCC1 (configuration not stated) 7.43 µM

Identify the reported TGI for the following entry. "c1cn[nH]c1" > 10 µM

Identify the reported TGI for the following entry. CCOC(=O)C12C(=O)CCN1CCc1ccccc1C2C (configuration not stated) > 100 µM

Identify the reported TGI for the following entry. "CC(C)C[C@H](NC(=O)[C@H](CCc1ccccc1)NC(=O)c1ccc2ccccc2n1)B(O)O" < 0.0123 µM

Identify the reported TGI for the following entry. C=C1[C@H](OCC(C)C)[C@@H](OC(=O)C(C)CC)[C@@H](O)C(C)(C)/C=C/[C@H](C)C(=O)[C@@]2(O)C[C@H](C)[C@H](O)[C@@H]2[C@H]1OC(=O)C(C)CC (some centres not stated) > 20 µM

Identify the reported TGI for the following entry. "CN(C)/C=N/S(=O)(=O)c1nn2c(C=O)c(-c3cc4ccccc4oc3=O)nc2s1" 62.4 µM

Identify the reported TGI for the following entry. "COc1cc2c3c(n(C)c(=O)c2cc1OC)-c1cc2c(cc1/C3=C\[C@@H](N)CCCCN)OCO2" > 100 µM

Identify the reported TGI for the following entry. "COc1cc(/C=C/C(=O)c2cc(OC)c(OC)c(OC)c2)cc(OC)c1OC" 8.11 µM

Identify the reported TGI for the following entry. "NCC(=O)CCC(=O)O" > 100 µM

Identify the reported TGI for the following entry. "CC(=O)C(C(=O)C(C)(C)C)C(=O)C(C)(C)C" > 100 µM

Identify the reported TGI for the following entry. "Cn1c(=O)c2[nH]c(-n3nc(-c4ccccc4)cc3N)nc2n(C)c1=O" > 100 µM

Identify the reported TGI for the following entry. "Cc1csc2n(C)c(=O)c3ccccc3[n+]12" > 100 µM

Identify the reported TGI for the following entry. "CC(C)C(/C=C/c1ccccc1)=N\NC(=S)NN" > 100 µM

Identify the reported TGI for the following entry. "C/C(=N\NC(=O)N/N=C(\C)c1ccccn1)c1ccccn1" > 100 µM

Identify the reported TGI for the following entry. "CC(C)[C@@H](CS(=O)(=O)C(C)C)N1C(=O)[C@@](C)(CC(=O)O)C[C@H](c2cccc(Cl)c2)[C@H]1c1ccc(Cl)cc1" 45.5 µM

Identify the reported TGI for the following entry. "Cc1ccc(C2(c3ccc(C)c(O)c3C)CCN(C)CC2)c(C)c1O" > 100 µM

Identify the reported TGI for the following entry. "Clc1ccc(Nc2nc3ccccc3c3occc23)cc1" 14.1 µM

Identify the reported TGI for the following entry. COc1cc(C2C3=C(N=C4SC(C(C)=O)=C(C)N42)c2ccccc2CC3)cc(OC)c1OC (configuration not stated) > 100 µM

---

system: M19-MEL melanoma; test: NCI tumour cell line growth inhibition, 48 h
Hi there, I'd appreciate the recorded TGI for every entry that follows.

Identify the reported TGI for the following entry. CCCN1C(=O)/C(=C(/O)C(=O)OCC)C(c2ccc(OC)c(OC)c2)C1=O (configuration not stated) > 100 µM

Identify the reported TGI for the following entry. COC(=O)C(=O)C(C#N)c1ccc(Cl)c(Cl)c1 (configuration not stated) > 100 µM

Identify the reported TGI for the following entry. "Cc1oc2c(C)c3oc(=O)cc(C)c3cc2c1CN" > 100 µM

Identify the reported TGI for the following entry. "O=C1CCC(=O)C12CCc1cccc(O)c12" > 100 µM

Identify the reported TGI for the following entry. "CC(C)c1ccc(O)c(=O)cc1" > 70.9 µM

Identify the reported TGI for the following entry. "CC(C)(Oc1ccc(C(=O)c2ccc(Cl)cc2)cc1Cl)C(=O)N1CCN(c2ccccc2)CC1" > 100 µM

Identify the reported TGI for the following entry. "CN(C)CCNC(=O)c1cccc2c1nc(-c1ccccn1)c1ccccc12" 32 µM

Identify the reported TGI for the following entry. "CN(Cc1ccccc1)C1(N(C)Cc2ccccc2)CC1" > 100 µM

Identify the reported TGI for the following entry. O=C1CCC2CCOc3ccc(O)c1c32 (configuration not stated) > 100 µM

Identify the reported TGI for the following entry. "Cc1nn(C)c(=O)c2nn(-c3ccccc3)c(C)c12" > 100 µM

Identify the reported TGI for the following entry. COC1(OC)c2ccccc2C2(O)c3ccccc3C(=O)C12 (configuration not stated) > 100 µM

Identify the reported TGI for the following entry. NC(=S)N/N=C(\C(=O)Nc1ccc(Cl)c(Cl)c1)C1=NN(c2ccccc2)C(c2cccc([N+](=O)[O-])c2)CC1=O (configuration not stated) 50.5 µM

---

test system: NCI-H226 lung; assay: NCI tumour cell line growth inhibition, 48 h
Hi there, I'd appreciate the recorded TGI for every entry that follows.

Identify the reported TGI for the following entry. COC(=O)[C@H](Cc1ccccc1)NC(=O)[C@@H](OC)[C@@H]1Cc2cc3cc(OC4CC(OC5CC(O)C(O)C(C)O5)C(O)C(C)O4)c(C)c(O)c3c(O)c2C(=O)[C@H]1OC1CC(OC2CC(OC3CC(C)(O)C(O)C(C)O3)C(O)C(C)O2)C(O)C(C)O1 (stereo not given in full) 0.0741 µM

Identify the reported TGI for the following entry. "C/C(=N\NC(=O)N/N=C(\C)c1ccccn1)c1ccccn1" > 100 µM

Identify the reported TGI for the following entry. O=[N+]([O-])c1ccc2c(c1)S(=O)c1ccccc1-2 (stereo not given) > 100 µM

Identify the reported TGI for the following entry. "OCCNc1nc2c(N3CCCC3)nc(N3CCNCC3)nc2nc1NCc1ccccc1" 35.2 µM

Identify the reported TGI for the following entry. "Oc1ccc(-c2nc3ccc4[nH]ncc4c3c3c2CCCC3)c2cccnc12" 5.79 µM

Identify the reported TGI for the following entry. CC(=O)OC1=C2C(CC3C4CC=C5CC(OC(C)=O)CCC5(C)C4CCC23C)C2C(=O)N(Cc3ccccc3)C(=O)C2C1 (stereo not given) > 100 µM

Identify the reported TGI for the following entry. "CC(C)(C)C(=O)OCC(COC(=O)C(C)(C)C)[N+](=O)[O-]" > 100 µM

Identify the reported TGI for the following entry. "Cc1ccsc1/C=N/Nc1ccccn1" > 100 µM

Identify the reported TGI for the following entry. "O=C1/C(=C2\SCC(=O)N2c2ccccc2)SC(=S)N1c1ccccc1" 48.4 µM

Identify the reported TGI for the following entry. COc1cccc(C2C(C#N)=C(N)Oc3cc(OC)ccc32)c1 (stereo not given) > 100 µM

Identify the reported TGI for the following entry. "O=C(/C=C/c1ccc(Cl)cc1)c1ccncc1" > 100 µM

Identify the reported TGI for the following entry. "Cc1ccnc2sc3ccccc3c(=O)c12" > 100 µM

Identify the reported TGI for the following entry. "COC(=O)[C@]12CC[C@@H](C)[C@H](C)[C@@H]1C1=CC[C@@H]3[C@@]4(C)C=C(O)C(=O)C(C)=C4CC[C@@]3(C)[C@]1(C)CC2" 41 µM

Identify the reported TGI for the following entry. "S=C1CSc2c(cnc3ccccc23)N1" > 100 µM

Identify the reported TGI for the following entry. COc1ccc(N2C(=O)C3c4[nH]c5ccccc5c4C4CCC(C(C)(C)C)CC4C3C2=O)cc1OC (stereo not given) 38.8 µM

Identify the reported TGI for the following entry. CSc1nc(=O)c(C#N)c(-c2ccccc2)n1C1OC(COC(C)=O)C(OC(C)=O)C(OC(C)=O)C1OC(C)=O (stereo not given) > 100 µM

Identify the reported TGI for the following entry. COP1(=S)OCC2CCC[C@@H]2O1 (stereo not given in full) > 100 µM

Identify the reported TGI for the following entry. "CN1CCN(c2c(O)c3c(c(O)c2Cl)C(=O)C=CC3=O)CC1" 4.08 µM

Identify the reported TGI for the following entry. "COc1cc2c3c(n(C)c(=O)c2cc1OC)-c1cc2c(cc1/C3=C\[C@@H](N)CCCCN)OCO2" 18.4 µM

Identify the reported TGI for the following entry. CC12CCC(C1)C(C)(C)C2OC(=O)c1ccccc1C(=O)O (stereo not given) > 100 µM
